# target_entity: Human Siglec-9-Fc (recombinant human Siglec-9 extracellular domain Q18-G348 fused to human IgG1 Fc) (human)
# Sequence (chain, as listed by the source limits assumed): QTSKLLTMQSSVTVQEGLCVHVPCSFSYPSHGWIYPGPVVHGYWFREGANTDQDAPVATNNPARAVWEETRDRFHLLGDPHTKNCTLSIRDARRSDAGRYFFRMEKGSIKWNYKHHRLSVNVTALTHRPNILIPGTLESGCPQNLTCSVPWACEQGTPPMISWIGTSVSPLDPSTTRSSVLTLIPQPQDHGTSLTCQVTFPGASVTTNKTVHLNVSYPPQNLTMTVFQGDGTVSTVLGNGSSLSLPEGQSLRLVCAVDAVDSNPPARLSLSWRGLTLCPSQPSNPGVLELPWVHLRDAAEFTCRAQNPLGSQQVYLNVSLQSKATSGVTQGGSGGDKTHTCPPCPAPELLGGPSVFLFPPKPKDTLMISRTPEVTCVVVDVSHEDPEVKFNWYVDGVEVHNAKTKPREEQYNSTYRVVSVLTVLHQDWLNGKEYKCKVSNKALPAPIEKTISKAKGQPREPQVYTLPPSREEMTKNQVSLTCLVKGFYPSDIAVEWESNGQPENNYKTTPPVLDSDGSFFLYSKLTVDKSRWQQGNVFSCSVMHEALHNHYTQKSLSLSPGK
# assay_summary: BLI binning, hSiglec-9-Fc on AHC sensor; competitor bound first (row): 12G23
metric_name: maximum binding nm shift (nm)

binder	metric_name	quantitative_result
9D21 (antibody, V domains shown) VH: QVQLKESGPGLVAPSQSLSITCTVSGFSLTRYGVSWVRQPPGKGLEWLGVIWGDGSTNYHSALISRLSISKDNSKSQVFLKLNSLQTDDTATYYCARPYYGFFDYWGQGTTLTVSS VL: SIVMTQTPKFLLVSAGDRVTITCKASQSVSNAVAWYQQKPGQSPKMLIYYASNRYTGVPDRFTGSGYGTDFTFTISTVQAEDLAVYFCQQDYSSPYTFGGGTKLEIK	maximum binding nm shift	0.524
13O18 (antibody, V domains shown) VH: EVQLQQSGPELVRPGASVKMSCKASGYTFTDYNMHWVKQSHGKSLEWIGYINPNNGGTTYNQNFKGKATLTVNKSSSTAYMELRSLTSEDSAVYYCAREGYGNYPFYWGQGTTLTVSS VL: DIVLTQSPASLAVSLGQRVTISCRASESVEYYGTSLMQWYQQKPGQPPKLLIYAASNVESGVPARFSGSGSGTDFSLNIHPVEEDDIAMFFCQQDRKVPYTFGGGTKLEIK	maximum binding nm shift	-0.016
12L19 (antibody, V domains shown) VH: QVTLKESGPGILQPSQTLSLTCSFSGFSLNTFGMAVGWIRQPSGKGLEWLAHIWWDDSYYFNPALRSRLTISKDTSKNQVFLTIANVDTADTATYYCTRIPDDYDDYAMDYWGQGTSVTVSS VL: DVVMTQTPLSLPVSLGDQASISCRSSQSLVHSNGNTYLHWYLQKPGQSPKLLVYKVSNRFSGVPDRFSGSGSGTDFTLKISRVEAEDLGVYFCSQNTHIPYTFGGGTKLEIK	maximum binding nm shift	0.185
9C15 (antibody, V domains shown) VH: QVQLQQPGAELVKPGASVKMSCKASGYTFTSYWITWLNQRPGQGLEWIGDIYPGSGGTNYNERFKSKATLTVDTSSSTAYMQLSSLTSEDSAVYYCARSGGWAMDYWGQGTSVTVSS VL: DIQMTQTTSSLSASLGDRVTISCRASQDISNYLNWYQQKPDGTVKLLIYYKSGLHSGVPSRFSGSGSGTDYSLTISNLEQEDIATYFCQQGNTLPFTFGGGTKLEIK	maximum binding nm shift	0.352
